Would you kindly list pIC50 for each of these compounds?
targetDesc: NAMPT (Homo sapiens)
Sequence (P43490 whole entry): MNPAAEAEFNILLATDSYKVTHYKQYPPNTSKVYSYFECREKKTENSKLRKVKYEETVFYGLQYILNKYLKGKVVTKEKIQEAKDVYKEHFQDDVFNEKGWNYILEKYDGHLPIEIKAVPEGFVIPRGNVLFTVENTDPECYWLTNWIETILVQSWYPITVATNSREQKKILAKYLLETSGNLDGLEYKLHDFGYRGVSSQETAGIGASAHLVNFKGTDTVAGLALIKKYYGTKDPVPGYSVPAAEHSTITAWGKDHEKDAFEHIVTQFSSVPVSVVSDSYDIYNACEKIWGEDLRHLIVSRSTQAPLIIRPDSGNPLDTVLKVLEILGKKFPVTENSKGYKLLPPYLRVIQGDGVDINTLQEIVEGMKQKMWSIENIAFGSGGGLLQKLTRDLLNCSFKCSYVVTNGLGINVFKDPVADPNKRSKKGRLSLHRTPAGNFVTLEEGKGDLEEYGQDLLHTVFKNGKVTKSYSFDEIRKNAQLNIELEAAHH
assayRemarks: Time-Resolved Fluorescence Resonance Energy Transfer (TR-FRET) Binding Assay of NAMPT
conditionLabel: 6.8 nM NAMPT, 200 nM probe, equilibrated 3 hours, no substrates
Keep it numeric: pIC50 is minus log10 of the concentration in mol/L.

Request: Item Cc1ccsc1C(=O)N1CC(c2ccc(NC(=O)N3CC(c4cccnc4)C3)cc2)C1 has what recorded pIC50?
Result: 7.98

Request: Item CC(C)(C)CC(=O)N1CC(Oc2ccc(NC(=O)N3CC(c4cccnc4)C3)cc2)C1 has what recorded pIC50?
Result: 7.88

Request: Item CCC(=O)N1CCC(c2ccc(NC(=O)N3CC(c4cccnc4)C3)cc2)C1 (stereo not shown) has what recorded pIC50?
Result: 7.04

Request: Item O=C(Nc1ccc(C2CN(C(=O)[C@@H]3CCCO3)C2)cc1)N1CC(c2cccnc2)C1 has what recorded pIC50?
Result: 7.02

Request: Item O=C(CC(F)(F)F)N1CCC(c2ccc(NC(=O)N3CC(c4cccnc4)C3)cc2)CC1 has what recorded pIC50?
Result: 7.76

Request: Item CCCC(=O)N1CC[C@H](Oc2ccc(NC(=O)N3CC(c4cccnc4)C3)cc2)C1 has what recorded pIC50?
Result: 6.65

Request: Item CC(C)C(=O)N1CCC(c2ccc(NC(=O)N3CC(c4cccnc4)C3)cc2)C1 (stereo not shown) has what recorded pIC50?
Result: 7.25

Request: Item O=C(CCC(F)(F)F)N1CC(Oc2ccc(NC(=O)N3CC(c4cccnc4)C3)cc2)C1 has what recorded pIC50?
Result: 7.84

Request: Item CCC(C)CC(=O)N1CC(c2ccc(NC(=O)N3CC(c4cccnc4)C3)cc2)C1 (stereo not shown) has what recorded pIC50?
Result: 7.29

Request: Item O=C(CC1CCCCC1)N1CCC(c2ccc(NC(=O)N3CC(c4cccnc4)C3)cc2)C1 (stereo not shown) has what recorded pIC50?
Result: 7.71

Request: Item COCCOCC(=O)N1CC(c2ccc(NC(=O)N3CC(c4cccnc4)C3)cc2)C1 has what recorded pIC50?
Result: 6.69

Request: Item O=C(CC1CC2CCC1C2)N1CCC(Oc2ccc(NC(=O)N3CC(c4cccnc4)C3)cc2)C1 (stereo not shown) has what recorded pIC50?
Result: 7.19

Request: Item O=C(Nc1ccc(O[C@@H]2CCN(C(=O)c3ccsc3)C2)cc1)N1CC(c2cccnc2)C1 has what recorded pIC50?
Result: 7.62

Request: Item O=C1CC[C@@H](C(=O)N2CCC(c3ccc(NC(=O)N4CC(c5cccnc5)C4)cc3)C2)N1 (stereo partly shown) has what recorded pIC50?
Result: 6.69

Request: Item CC(C)C(=O)N1CC(c2ccc(NC(=O)N3CC(c4cccnc4)C3)cc2)C1 has what recorded pIC50?
Result: 6.84

Request: Item CC(C)(C)CC(=O)N1CCC(c2ccc(NC(=O)N3CC(c4cccnc4)C3)cc2)C1 (stereo not shown) has what recorded pIC50?
Result: 7.53

====

targetDesc: UniProt P43490
assayRemarks: Time-Resolved Fluorescence Resonance Energy Transfer (TR-FRET) Binding Assay of NAMPT
conditionLabel: 6.8 nM NAMPT, 200 nM probe, equilibrated 3 hours, no substrates
measuredQuantity: IC50 (nM)
Number in nM, nothing else.

Request: Item COCC(=O)N1CC[C@@H](Oc2ccc(NC(=O)N3CC(c4cccnc4)C3)cc2)C1 [Example 331] has what recorded IC50?
Result: 81

Request: Item O=C(CC(F)(F)F)N1CCC(Oc2ccc(NC(=O)N3CC(c4cccnc4)C3)cc2)CC1 [Example 6] has what recorded IC50?
Result: 53.4

Request: Item CCC(C)CC(=O)N1CC(Oc2ccc(NC(=O)N3CC(c4cccnc4)C3)cc2)C1 (centres unmarked) [Example 121] has what recorded IC50?
Result: 18.6

Request: Item CN(C)CCC(=O)N1CCC(c2ccc(NC(=O)N3CC(c4cccnc4)C3)cc2)C1 (centres unmarked) [Example 266] has what recorded IC50?
Result: 96.2

Request: Item O=C(CC1CCCC1)N1CCC(c2ccc(NC(=O)N3CC(c4cccnc4)C3)cc2)C1 (centres unmarked) [Example 261] has what recorded IC50?
Result: 33.5
